System: P. aeruginosa KM 97-5
Test: Antibacterial activity test (MIC)
Format: cell-based
Conditions: Mueller-Hinton Broth, 37° C., 20 to 24 hours
Catalogue of minimal inhibitory concentration (MIC) values
observable: minimal inhibitory concentration (MIC) (mg/L)

compound: N=C(NCCCCCCNC(=N)NC(=N)Nc1ccc(Cl)cc1)NC(=N)Nc1ccc(Cl)cc1.O=C(O)[C@H](O)[C@@H](O)[C@H](O)[C@H](O)CO.O=C(O)[C@H](O)[C@@H](O)[C@H](O)[C@H](O)CO [Control drug, chlorhexidine gluconate, reference compound]
studySystem: P. aeruginosa KM 97-5
observable: minimal inhibitory concentration (MIC)
unitString: mg/L
observedValue: 12.5
--
compound: CC(=O)O.CCCCCCCCNC1=NC(C)(C)N=C(NCc2ccc(C)cc2)N1
studySystem: P. aeruginosa KM 97-5
observable: minimal inhibitory concentration (MIC)
unitString: mg/L
observedValue: 25
--
compound: CC(=O)O.CCCCCCCCNC1=NC(C)(C)N=C(NCCCCCC)N1
studySystem: P. aeruginosa KM 97-5
observable: minimal inhibitory concentration (MIC)
unitString: mg/L
observedValue: 50
--
compound: CC(=O)O.CCCCCCCCCNC1=NC(C)(C)N=C(NCc2ccccc2)N1
studySystem: P. aeruginosa KM 97-5
observable: minimal inhibitory concentration (MIC)
unitString: mg/L
observedValue: 25

---

System: P. aeruginosa No. 12
Assay: Antibacterial activity test (MIC)
Type: cell-based
Conditions: Mueller-Hinton Broth, 37° C., 20 to 24 hours

compound: CC(=O)O.CCCCCCCCNC1=NC(C)(C)N=C(NCCCCCC)N1
minimal inhibitory concentration (MIC): 50 µg/mL
--
compound: CC(=O)O.CCCCCCCCNC1=NC(C)(C)N=C(NCc2ccc(C)cc2)N1
minimal inhibitory concentration (MIC): 25 µg/mL
--
compound: CC(=O)O.CCCCCCCCCNC1=NC(C)(C)N=C(NCc2ccccc2)N1
minimal inhibitory concentration (MIC): 25 µg/mL
--
compound: N=C(NCCCCCCNC(=N)NC(=N)Nc1ccc(Cl)cc1)NC(=N)Nc1ccc(Cl)cc1.O=C(O)[C@H](O)[C@@H](O)[C@H](O)[C@H](O)CO.O=C(O)[C@H](O)[C@@H](O)[C@H](O)[C@H](O)CO [Control drug, chlorhexidine gluconate, reference compound]
minimal inhibitory concentration (MIC): 12.5 µg/mL

---

Test system: P. aeruginosa PAO-1
Test: Bactericidal activity test (MBC, phenol coefficient measuring method)
Format: cell-based
Conditions: 1 min
// reported minimal bactericidal concentration (MBC) for each item listed

compound: CC(=O)O.CCCCCCCCCNC1=NC(C)(C)N=C(NCCc2ccccc2)N1
studySystem: P. aeruginosa PAO-1
minimal bactericidal concentration (MBC): 12.5 µg/mL

compound: CCCCCCCCCCCC1N=C(N)NC(NCc2ccccc2)=N1.Cl (racemic)
studySystem: P. aeruginosa PAO-1
minimal bactericidal concentration (MBC): 3.1 µg/mL

compound: CCCCCCCCCCCCC1N=C(N)NC(NCCc2ccc(OC)cc2)=N1.Cl (racemic)
studySystem: P. aeruginosa PAO-1
minimal bactericidal concentration (MBC): 6.3 µg/mL

---

System: MRSA 97-115
Experiment: Bactericidal activity test (MBC, phenol coefficient measuring method)
Assay type: cell-based, methicillin-resistant Staphylococcus aureus
Conditions: 1 min
Item-by-item account of minimal bactericidal concentration (MBC)
observable: minimal bactericidal concentration (MBC) (µg/mL)

compound: Br.CCCCCCCCCNC1=NC(C)(C)N=C(NCc2ccccc2)N1 [compound 49]
studySystem: MRSA 97-115
unitString: µg/mL
observedValue: 25

compound: CCCCCCCCCCNC1=NC(C)(C)N=C(NCCc2ccc(OC)cc2)N1.Cl [compound 4]
studySystem: MRSA 97-115
unitString: µg/mL
observedValue: 25

compound: CCCCCCCCNC1=NC(C)(C)N=C(NCc2ccc(C)cc2)N1 [compound 37]
studySystem: MRSA 97-115
unitString: µg/mL
observedValue: 25

compound: CCCCCCCCCCCC1N=C(N)NC(NCc2ccccc2)=N1.Cl (racemic) [43(1)]
studySystem: MRSA 97-115
unitString: µg/mL
observedValue: 50

compound: CC(=O)O.CCCCCCCCCNC1=NC(C)(C)N=C(NCc2ccccc2)N1 [compound 48]
studySystem: MRSA 97-115
unitString: µg/mL
observedValue: 12.5

compound: CCCCCCCCCCNC1=NC(C)(C)N=C(NCc2ccc(OC)cc2)N1.CS(=O)(=O)O [38(2)]
studySystem: MRSA 97-115
unitString: µg/mL
observedValue: 25

compound: CC(=O)O.CCCCCCCCNC1=NC(C)(C)N=C(NCCCCCC)N1 [compound 68]
studySystem: MRSA 97-115
unitString: µg/mL
observedValue: 12.5

compound: CCCCCCCCCCC1N=C(N)N=C(N)N1c1ccc(F)c(F)c1F.Cl (stereo not drawn) [compound 31]
studySystem: MRSA 97-115
unitString: µg/mL
observedValue: 25

compound: CC(=O)O.CCCCCCCCCNC1=NC(C)(C)N=C(NCCc2ccccc2)N1 [compound 56]
studySystem: MRSA 97-115
unitString: µg/mL
observedValue: 25

compound: CC(=O)O.CCCCCCCNC1=NC(C)(C)N=C(NCCCCCCC)N1 [compound 69]
studySystem: MRSA 97-115
unitString: µg/mL
observedValue: 25

compound: CCCCCCCCCC1N=C(N)N=C(N)N1c1ccc(C(C)(C)C)cc1.Cl (stereo not drawn) [compound 22]
studySystem: MRSA 97-115
unitString: µg/mL
observedValue: 25

compound: N=C(NCCCCCCNC(=N)NC(=N)Nc1ccc(Cl)cc1)NC(=N)Nc1ccc(Cl)cc1.O=C(O)[C@H](O)[C@@H](O)[C@H](O)[C@H](O)CO.O=C(O)[C@H](O)[C@@H](O)[C@H](O)[C@H](O)CO [Control drug, chlorhexidine gluconate, reference compound]
studySystem: MRSA 97-115
unitString: µg/mL
observedValue: 1000

compound: CCCCCCCCCCCCCCNC1=NC(C)(C)N=C(N)N1.Cl [compound 72]
studySystem: MRSA 97-115
unitString: µg/mL
observedValue: 25

compound: CC(=O)O.CCCCCCCCNC1=NC(C)(C)N=C(NCC2CCCCC2)N1 [compound 65]
studySystem: MRSA 97-115
unitString: µg/mL
observedValue: 25

compound: CC(=O)O.CCCCCCCCNC1=NC(C)(C)N=C(Nc2cnc3ccccc3c2)N1 [compound 82]
studySystem: MRSA 97-115
unitString: µg/mL
observedValue: 50

compound: CCCCCCCCCCCCC1N=C(N)NC(NCCc2ccc(OC)cc2)=N1.Cl (racemic) [15(1)]
studySystem: MRSA 97-115
unitString: µg/mL
observedValue: 25

compound: CC(=O)O.CCCCCCCCNC1=NC(C)(C)N=C(NCc2ccc(C)cc2)N1 [compound 58]
studySystem: MRSA 97-115
unitString: µg/mL
observedValue: 25

compound: CCCCCCCCCCNC1=NC(C)(C)N=C(NCc2ccccc2)N1.CS(=O)(=O)O [compound 2]
studySystem: MRSA 97-115
unitString: µg/mL
observedValue: 25

---

Reported values of minimal inhibitory concentration (MIC) for individual entries
System: E. coli NIHJ JC-2
Assay: Antibacterial activity test (MIC)
Type: cell-based
Settings: Mueller-Hinton Broth, 37° C., 20 to 24 hours

compound: CCCCCCCCCCNC1=NC(C)(C)N=C(NCc2ccccc2)N1.O=C(O)C(=O)O
minimal inhibitory concentration (MIC) / µg/mL: 12.5
//
compound: CCCCCCCCCC1N=C(N)N=C(N)N1c1ccc(F)c(F)c1F.Cl (stereo not shown)
minimal inhibitory concentration (MIC) / µg/mL: 25
//
compound: CCCCCCCCCCNC1=NC(C)(C)N=C(NCc2ccc(OC)c(OC)c2)N1.Cl
minimal inhibitory concentration (MIC) / µg/mL: 25
//
compound: CC(=O)O.CCCCCCCCCCCCNC1=NC(C)(C)N=C(NCc2ccco2)N1
minimal inhibitory concentration (MIC) / µg/mL: 50
//
compound: CC(=O)O.CCCCCCCCNC1=NC(C)(C)N=C(NCCc2ccccc2)N1
minimal inhibitory concentration (MIC) / µg/mL: 25
//
compound: CCCCCCCCCNC1=NC(C)(C)N=C(NCc2ccccc2)N1.O=C(O)O
minimal inhibitory concentration (MIC) / µg/mL: 12.5
//
compound: CCCCCCCCCC1N=C(N)N=C(N)N1c1ccc(C(C)(C)C)cc1.Cl (stereo not shown)
minimal inhibitory concentration (MIC) / µg/mL: 25

---

Catalogue of minimal inhibitory concentration (MIC) readings, one per entry.
Tested on: S. aureus 209PJC
Assay: Antibacterial activity test (MIC)
Type: cell-based
Settings: Mueller-Hinton Broth, 37° C., 20 to 24 hours
observable: minimal inhibitory concentration (MIC)

compound: CCCCCCCCCCCCCCNC1=NC(C)(C)N=C(N)N1.Cl
observable: minimal inhibitory concentration (MIC)
observedValue: 0.8 µg/mL

compound: CCCCCCCCCCNC1=NC(C)(C)N=C(NCCc2ccccc2)N1.O=C(O)CC(=O)O
observable: minimal inhibitory concentration (MIC)
observedValue: 0.4 µg/mL

compound: CCCCCCCCCCCNC1=NC(C)(C)N=C(NCCc2ccc(OC)cc2)N1.Cl
observable: minimal inhibitory concentration (MIC)
observedValue: 0.9 µg/mL

compound: CCCCCCCCNC1=NC(C)(C)N=C(NCCCCCC)N1.O=C(O)C(O)C(O)C(O)C(O)CO
observable: minimal inhibitory concentration (MIC)
observedValue: 0.8 µg/mL

compound: CC(=O)O.CCCCCCCCNC1=NC(C)(C)N=C(Nc2cnc3ccccc3c2)N1
observable: minimal inhibitory concentration (MIC)
observedValue: 0.8 µg/mL

compound: CCCCCCCCNC1=NC(C)(C)N(c2cccc3ccccc23)C(N)=N1.Cl
observable: minimal inhibitory concentration (MIC)
observedValue: 6.3 µg/mL

compound: CCCCCCCCCCCCC1N=C(N)NC(NCc2ccc(OC)cc2)=N1.Cl (racemic)
observable: minimal inhibitory concentration (MIC)
observedValue: 0.4 µg/mL

compound: CC(=O)O.CCCCCCCCNC1=NC(C)(C)N=C(NCC2CCCCC2)N1
observable: minimal inhibitory concentration (MIC)
observedValue: 0.8 µg/mL

compound: CC(=O)O.CCCCCCCNC1=NC(C)(C)N=C(NCCCCCCC)N1
observable: minimal inhibitory concentration (MIC)
observedValue: 0.8 µg/mL

compound: CCCCCCCCCCCCC1N=C(N)N=C(N)N1CCc1ccc(OC)cc1.Cl (racemic)
observable: minimal inhibitory concentration (MIC)
observedValue: 0.4 µg/mL

compound: CC(=O)O.CCCCCCCNC1=NC(C)(C)N=C(NC(C)(C)CC(C)(C)C)N1
observable: minimal inhibitory concentration (MIC)
observedValue: 0.8 µg/mL

compound: CCCCCCCCCCC1N=C(N)N=C(N)N1c1ccc(F)c(F)c1F.Cl (stereo not shown)
observable: minimal inhibitory concentration (MIC)
observedValue: 1.6 µg/mL

compound: CCCCCCCCCCNC1=NC(C)(C)N(c2ccc(OC)cc2)C(N)=N1.Cl
observable: minimal inhibitory concentration (MIC)
observedValue: 3.1 µg/mL

compound: N=C(NCCCCCCNC(=N)NC(=N)Nc1ccc(Cl)cc1)NC(=N)Nc1ccc(Cl)cc1.O=C(O)[C@H](O)[C@@H](O)[C@H](O)[C@H](O)CO.O=C(O)[C@H](O)[C@@H](O)[C@H](O)[C@H](O)CO [Control drug, chlorhexidine gluconate, reference compound]
observable: minimal inhibitory concentration (MIC)
observedValue: 0.2 µg/mL

compound: CCCCCCCCC1N=C(N)N=C(N)N1c1ccc(C(C)(C)C)cc1.Cl (stereo not shown)
observable: minimal inhibitory concentration (MIC)
observedValue: 1.5 µg/mL

compound: CCCCCCCCCCNC1=NC(C)(C)N=C(NCc2ccc(OC)cc2)N1.CS(=O)(=O)O
observable: minimal inhibitory concentration (MIC)
observedValue: 0.4 µg/mL

compound: CC(=O)O.CCCCCCCCCNC1=NC(C)(C)N=C(Nc2ccccc2)N1
observable: minimal inhibitory concentration (MIC)
observedValue: 0.8 µg/mL

compound: CCCCCCCCCCNC1=NC(C)(C)N=C(NCc2ccc(OC)c(OC)c2)N1.Cl
observable: minimal inhibitory concentration (MIC)
observedValue: 1.6 µg/mL

compound: CCCCCCCCCCC1N=C(N)NC(Nc2ccc(F)c(F)c2F)=N1.Cl (stereo not shown)
observable: minimal inhibitory concentration (MIC)
observedValue: 0.8 µg/mL

compound: CCCCCCCCCCNC1=NC(C)(C)N=C(NCc2ccc(OC)cc2)N1.Cl
observable: minimal inhibitory concentration (MIC)
observedValue: 0.4 µg/mL

compound: Br.CCCCCCCCCNC1=NC(C)(C)N=C(NCc2ccccc2)N1
observable: minimal inhibitory concentration (MIC)
observedValue: 0.4 µg/mL

compound: CCCCCCCCCC1N=C(N)NC(Nc2ccc(OC(F)(F)F)cc2)=N1.Cl (stereo not shown)
observable: minimal inhibitory concentration (MIC)
observedValue: 0.8 µg/mL

compound: CCCCCCCCCCCCC1N=C(N)NC(NCc2ccccc2)=N1.Cl (racemic)
observable: minimal inhibitory concentration (MIC)
observedValue: 0.2 µg/mL

compound: CCCCCCCCCCNC1=NC(C)(C)N=C(NCc2ccc(C(=O)O)cc2)N1.Cl
observable: minimal inhibitory concentration (MIC)
observedValue: 3.1 µg/mL

compound: CCCCCCCC1N=C(N)N=C(N)N1c1ccc(C(C)(C)C)cc1.Cl (stereo not shown)
observable: minimal inhibitory concentration (MIC)
observedValue: 3.1 µg/mL

compound: CCCCCCCCCCC1N=C(N)N=C(N)N1c1ccc(F)cc1F.Cl (stereo not shown)
observable: minimal inhibitory concentration (MIC)
observedValue: 1.6 µg/mL

compound: CC(=O)O.CCCCCCCNC1=NC2(CCCC2)N=C(NCc2ccccc2)N1
observable: minimal inhibitory concentration (MIC)
observedValue: 0.8 µg/mL

compound: CC(=O)O.CCCCCCCCCCNC1=NC(C)(C)N=C(NCc2ccccc2)N1
observable: minimal inhibitory concentration (MIC)
observedValue: 0.4 µg/mL

compound: CCCCCCCCNC1=NC(C)(C)N=C(Nc2cccc3ccccc23)N1
observable: minimal inhibitory concentration (MIC)
observedValue: 0.8 µg/mL

compound: CCCCCCCCCC1N=C(N)N=C(N)N1c1ccc(OC(F)(F)F)cc1.Cl (stereo not shown)
observable: minimal inhibitory concentration (MIC)
observedValue: 1.6 µg/mL

compound: CCCCCCCCCCCCNC1=NC(C)(C)N=C(NCc2ccc(S(N)(=O)=O)cc2)N1
observable: minimal inhibitory concentration (MIC)
observedValue: 0.4 µg/mL

compound: CC(=O)O.CCCCCCCCNC1=NC(C)(C)N=C(NCc2ccccc2)N1
observable: minimal inhibitory concentration (MIC)
observedValue: 0.8 µg/mL

compound: CCCCCCCCCCNC1=NC(C)(C)N=C(NCc2ccc(O)cc2)N1.Cl
observable: minimal inhibitory concentration (MIC)
observedValue: 0.2 µg/mL

compound: CCCCCCCCCCNC1=NC(C)(C)N=C(NCc2ccccc2)N1.O=C(O)C(=O)O
observable: minimal inhibitory concentration (MIC)
observedValue: 0.8 µg/mL

The origin of these recorded values is patent US7622469B2.
